tested.target: polyclonal antibodies in mouse sera specific for human PCSK9 aa 153-162 or aa 153-165
assay.name: competition ELISA, 20 ug peptide with sera, plate coated with m2 (competitor)
recorded.metric: % Competition compared to the related control group (%)

Example entries and their recorded answers appear below.
> print(dat)
          binder  reported
1     SVPWNLERLT        57
2  SIPWNLERITPPK        66
3     SQPWNLERIQ        66
4     VQPWSLERLL        66
5  SIPWDLERITPPR        74

[1] SIPWNAERIT
[2] SIPWSLERIQ
Q: Lower % Competition compared to the related control group: 1 or 2 ? Please respond with the label that marks your chosen entry.
Result: 2
